Entry source: ChEMBL document CHEMBL4425165

Task for the reader: assign each of the following molecules its reported clearance.
# Assay Info: Clearance in Sprague-Dawley rat at 1 mg/kg, iv or 5 mg/kg, po by LC-MS/MS analysis
# Type: ADME, organism-based
# Experimental Context: in vivo
Give bare numbers, in mL/min/kg.

Example entries begin here.
[[record]]
molecule = "Cc1cc(-c2cnn3c(NCC4CC4)cc(NC4CCCC[C@H]4O)nc23)ccc1C(=O)NC1CC1 (single isomer, unassigned)"
result_value = 22

[[record]]
molecule = "Cc1cc(-c2cnn3c(NC[C@H]4C[C@@](C)(O)C4)cc(Oc4cccnc4)nc23)ccc1C(=O)NC1CC1"
result_value = 14

[[record]]
molecule = "Cc1cc(-c2cnn3c(NCCN4CCOCC4)cc(Oc4cccc(F)c4)nc23)ccc1C(=O)NC1CC1"
result_value = 34


# ---- query molecule ----
Q. Identify measured clearance corresponding to `Cc1cc(-c2cnn3c(NCC4CCOCC4)cc(N[C@@H](C4CC4)C(C)(C)O)nc23)ccc1C(=O)NC1CC1`
A. 66
